molecular target: ErbB2 WT (Homo sapiens (Human), UniProt P04626); assay: ErbB Enzyme Assay (HTRF KinEASE-TK), Assay 2; format: biochemical; details: ErbB2 WT enzyme
Sequence (P04626 23-1255): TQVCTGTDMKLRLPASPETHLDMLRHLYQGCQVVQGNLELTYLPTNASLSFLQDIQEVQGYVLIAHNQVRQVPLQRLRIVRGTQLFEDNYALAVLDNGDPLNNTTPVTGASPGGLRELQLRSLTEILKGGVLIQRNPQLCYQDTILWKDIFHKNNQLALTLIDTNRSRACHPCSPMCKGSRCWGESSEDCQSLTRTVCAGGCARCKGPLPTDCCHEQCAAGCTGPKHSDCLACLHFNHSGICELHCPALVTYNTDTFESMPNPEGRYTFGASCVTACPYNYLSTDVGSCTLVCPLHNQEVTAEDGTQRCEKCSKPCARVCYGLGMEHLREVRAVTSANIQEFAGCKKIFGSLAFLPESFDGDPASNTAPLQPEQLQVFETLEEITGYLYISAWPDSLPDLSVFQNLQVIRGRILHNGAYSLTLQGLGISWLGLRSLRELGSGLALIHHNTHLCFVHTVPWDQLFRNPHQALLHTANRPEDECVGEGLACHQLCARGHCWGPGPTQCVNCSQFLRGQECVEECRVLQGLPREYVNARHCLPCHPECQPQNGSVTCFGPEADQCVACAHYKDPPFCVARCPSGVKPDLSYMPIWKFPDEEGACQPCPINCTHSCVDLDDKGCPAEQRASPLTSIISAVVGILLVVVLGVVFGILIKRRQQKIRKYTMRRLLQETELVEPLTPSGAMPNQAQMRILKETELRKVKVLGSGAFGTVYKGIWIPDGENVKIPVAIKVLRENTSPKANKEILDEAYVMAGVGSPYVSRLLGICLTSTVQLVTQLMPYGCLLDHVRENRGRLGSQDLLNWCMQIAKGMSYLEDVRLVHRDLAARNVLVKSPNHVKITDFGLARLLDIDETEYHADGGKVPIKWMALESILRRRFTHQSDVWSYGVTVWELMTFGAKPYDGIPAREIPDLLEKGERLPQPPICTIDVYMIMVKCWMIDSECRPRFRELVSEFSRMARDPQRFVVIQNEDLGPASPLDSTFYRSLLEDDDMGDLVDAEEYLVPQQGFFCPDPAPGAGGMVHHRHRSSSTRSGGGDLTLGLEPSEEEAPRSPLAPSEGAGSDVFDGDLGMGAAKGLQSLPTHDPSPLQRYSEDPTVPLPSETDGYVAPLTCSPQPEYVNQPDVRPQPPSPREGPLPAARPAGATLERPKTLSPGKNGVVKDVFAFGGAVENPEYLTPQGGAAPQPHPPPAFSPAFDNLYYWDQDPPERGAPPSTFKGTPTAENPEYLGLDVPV
EXPERIMENTAL_READOUT: IC50 (nM)

Some solved entries appear below for comparison.
>  <MOLECULE>
C=CC(=O)N1CC(c2ccc3ncnc(Nc4cc(C)c(Oc5ccc6c(c5)ncn6C)cc4F)c3n2)CCC12CC2 (stereo not shown)

>  <EXPERIMENTAL_READOUT>
IC50

>  <UNIT_SYMBOL>
nM

>  <MEASURED_NUMBER>
42.9

$$$$
>  <MOLECULE>
C=CC(=O)N1CCC(Oc2ccc3ncnc(Nc4cc(Cl)c(Oc5ccc6cn(C)nc6c5)cc4F)c3n2)CC1

>  <EXPERIMENTAL_READOUT>
IC50

>  <UNIT_SYMBOL>
nM

>  <MEASURED_NUMBER>
876

$$$$
>  <MOLECULE>
C=CC(=O)N1[C@@H]2CC[C@H]1C[C@@H](c1ccc3ncnc(Nc4cc(C)c(Oc5cnc6c(c5)ncn6C)cc4F)c3n1)C2

>  <EXPERIMENTAL_READOUT>
IC50

>  <UNIT_SYMBOL>
nM

>  <MEASURED_NUMBER>
310

$$$$

[A] C=CC(=O)N1CCN(c2ccc3ncnc(Nc4ccc(Oc5cnc6c(c5)ncn6C)c(Cl)c4)c3n2)CC1
[B] C=CC(=O)N1CCC(Oc2ccc3ncnc(Nc4ccc(Oc5cnc6cn(C)nc6c5)c(C)c4)c3n2)CC1
[C] C=CC(=O)N1CCC(Oc2ccc3ncnc(Nc4ccc(Oc5ccc6cn(C)nc6c5)c(Cl)c4F)c3n2)CC1
[D] C=CC(=O)N1CCCN(c2ccc3ncnc(Nc4ccc(Oc5ccn6ncnc6c5)c(Cl)c4F)c3n2)CC1
Enquiry: Ordering: ascending IC50. API: response body holds the labels in the requested order.
Return: A, D, B, C
(A: 15.8 nM, D: 51.1 nM, B: 432 nM, C: 977 nM)

----------
target: MDR1 (P-gp) (Homo sapiens (Human), UniProt P08183); experiment: in vitro; settings: pig, LLC-PK1
Sequence (P08183 whole entry): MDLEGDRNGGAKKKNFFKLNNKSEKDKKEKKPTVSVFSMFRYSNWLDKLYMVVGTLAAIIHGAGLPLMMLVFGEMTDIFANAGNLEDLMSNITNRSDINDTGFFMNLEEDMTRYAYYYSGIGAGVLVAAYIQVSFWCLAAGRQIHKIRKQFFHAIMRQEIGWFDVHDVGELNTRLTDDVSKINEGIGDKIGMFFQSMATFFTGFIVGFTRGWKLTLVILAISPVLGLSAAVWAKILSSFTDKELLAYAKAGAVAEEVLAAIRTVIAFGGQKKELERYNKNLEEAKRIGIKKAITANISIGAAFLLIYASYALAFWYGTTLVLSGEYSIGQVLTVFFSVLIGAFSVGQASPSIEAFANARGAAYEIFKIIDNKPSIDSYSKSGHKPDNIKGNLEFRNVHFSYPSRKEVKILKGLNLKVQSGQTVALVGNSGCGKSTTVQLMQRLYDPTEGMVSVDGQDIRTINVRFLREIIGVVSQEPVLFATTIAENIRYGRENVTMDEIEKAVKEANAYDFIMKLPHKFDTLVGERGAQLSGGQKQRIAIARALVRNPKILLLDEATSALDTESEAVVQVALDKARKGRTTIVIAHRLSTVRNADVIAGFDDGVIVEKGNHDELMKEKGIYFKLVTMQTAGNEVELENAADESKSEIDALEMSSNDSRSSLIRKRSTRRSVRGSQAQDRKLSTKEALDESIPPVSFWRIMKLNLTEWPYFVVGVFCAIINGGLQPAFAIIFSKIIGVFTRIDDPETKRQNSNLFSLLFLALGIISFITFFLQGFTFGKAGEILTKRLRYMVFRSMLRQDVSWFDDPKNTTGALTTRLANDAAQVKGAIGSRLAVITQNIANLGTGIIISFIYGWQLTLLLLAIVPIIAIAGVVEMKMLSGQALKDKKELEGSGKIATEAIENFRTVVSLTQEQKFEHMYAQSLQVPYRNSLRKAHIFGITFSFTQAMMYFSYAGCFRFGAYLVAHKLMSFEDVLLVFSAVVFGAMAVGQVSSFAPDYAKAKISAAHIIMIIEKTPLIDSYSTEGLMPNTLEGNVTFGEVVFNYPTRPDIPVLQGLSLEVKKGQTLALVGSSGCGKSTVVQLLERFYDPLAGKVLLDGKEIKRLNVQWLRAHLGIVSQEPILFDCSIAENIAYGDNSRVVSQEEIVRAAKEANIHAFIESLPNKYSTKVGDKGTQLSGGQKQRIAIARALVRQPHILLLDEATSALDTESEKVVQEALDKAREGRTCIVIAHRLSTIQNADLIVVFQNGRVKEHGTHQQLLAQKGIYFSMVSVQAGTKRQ
EXPERIMENTAL_READOUT: efflux ratio at 2 h, 1 µM

Some solved entries appear below for comparison.
>  <MOLECULE>
C=CC(=O)N1CC[C@@H]2C[C@H]1CN2c1ccc2ncnc(Nc3cc(C)c(Oc4ccn5ncnc5c4)cc3F)c2n1

>  <efflux ratio at 2 h, 1 µM>
1.2

$$$$
>  <MOLECULE>
C=CC(=O)N1CC2CC(C1)N2c1ccc2ncnc(Nc3ccc(Oc4ccn5ncnc5c4)c(C)c3F)c2n1

>  <efflux ratio at 2 h, 1 µM>
2.5

$$$$
>  <MOLECULE>
C=CC(=O)N1[C@@H]2CC[C@H]1[C@H](c1ccc3ncnc(Nc4cc(C)c(Oc5ccc6c(c5)ncn6C)cc4F)c3n1)C2

>  <efflux ratio at 2 h, 1 µM>
1.8

$$$$
>  <MOLECULE>
C=CC(=O)N1C[C@@H](c2ccc3ncnc(Nc4ccc(Oc5ccc6c(c5)ncn6C)c(C)c4F)c3n2)C[C@@H]1C

>  <efflux ratio at 2 h, 1 µM>
0.9

$$$$
>  <MOLECULE>
C=CC(=O)N1[C@@H]2CC[C@H]1[C@H](c1ccc3ncnc(Nc4ccc(Oc5ccn6ncnc6c5)c(C)c4F)c3n1)C2 (single isomer, unassigned) [Example 228]

>  <efflux ratio at 2 h, 1 µM>
0.8

$$$$

[I] C=CC(=O)N1CCN(c2ccc3ncnc(Nc4ccc(Oc5cnc6c(c5)ncn6C)c(Cl)c4)c3n2)CC1(C)C
[II] C=CC(=O)N1CCN(c2ccc3ncnc(Nc4cc(C)c(Oc5cnc6c(c5)ncn6C)cc4F)c3n2)C[C@H]1C1CC1
[III] C=CC(=O)N1CCCC(c2ccc3ncnc(Nc4ccc(Oc5cnc6c(c5)ncn6C)c(C)c4)c3n2)CC1 (stereo not shown)
[IV] C=CC(=O)N1CCCC[C@@H](c2ccc3ncnc(Nc4ccc(Oc5ccc6c(c5)ncn6C)c(C)c4F)c3n2)C1 (racemic)
Enquiry: Arrange by efflux ratio at 2 h, 1 µM, high to low. API: response body holds the labels in the requested order.
Return: IV, III, I, II
(IV: 6.4, III: 2, I: 1.4, II: 0.9)

----------
target: ErbB2 with Exon 20 YVMA insertion (HER2-YVMA) (Homo sapiens (Human), UniProt P04626, INS775YVMA); assay: Cellular Phosphorylation Assay, Assay 4 (constitutive ErbB2 phosphorylation, NIH 3T3 cells); assay type: cell-based; details: ErbB2 YVMA phosphorylation
Sequence (P04626 other isoform, or with tags, fused parts or gaps ins YVMA behind 775): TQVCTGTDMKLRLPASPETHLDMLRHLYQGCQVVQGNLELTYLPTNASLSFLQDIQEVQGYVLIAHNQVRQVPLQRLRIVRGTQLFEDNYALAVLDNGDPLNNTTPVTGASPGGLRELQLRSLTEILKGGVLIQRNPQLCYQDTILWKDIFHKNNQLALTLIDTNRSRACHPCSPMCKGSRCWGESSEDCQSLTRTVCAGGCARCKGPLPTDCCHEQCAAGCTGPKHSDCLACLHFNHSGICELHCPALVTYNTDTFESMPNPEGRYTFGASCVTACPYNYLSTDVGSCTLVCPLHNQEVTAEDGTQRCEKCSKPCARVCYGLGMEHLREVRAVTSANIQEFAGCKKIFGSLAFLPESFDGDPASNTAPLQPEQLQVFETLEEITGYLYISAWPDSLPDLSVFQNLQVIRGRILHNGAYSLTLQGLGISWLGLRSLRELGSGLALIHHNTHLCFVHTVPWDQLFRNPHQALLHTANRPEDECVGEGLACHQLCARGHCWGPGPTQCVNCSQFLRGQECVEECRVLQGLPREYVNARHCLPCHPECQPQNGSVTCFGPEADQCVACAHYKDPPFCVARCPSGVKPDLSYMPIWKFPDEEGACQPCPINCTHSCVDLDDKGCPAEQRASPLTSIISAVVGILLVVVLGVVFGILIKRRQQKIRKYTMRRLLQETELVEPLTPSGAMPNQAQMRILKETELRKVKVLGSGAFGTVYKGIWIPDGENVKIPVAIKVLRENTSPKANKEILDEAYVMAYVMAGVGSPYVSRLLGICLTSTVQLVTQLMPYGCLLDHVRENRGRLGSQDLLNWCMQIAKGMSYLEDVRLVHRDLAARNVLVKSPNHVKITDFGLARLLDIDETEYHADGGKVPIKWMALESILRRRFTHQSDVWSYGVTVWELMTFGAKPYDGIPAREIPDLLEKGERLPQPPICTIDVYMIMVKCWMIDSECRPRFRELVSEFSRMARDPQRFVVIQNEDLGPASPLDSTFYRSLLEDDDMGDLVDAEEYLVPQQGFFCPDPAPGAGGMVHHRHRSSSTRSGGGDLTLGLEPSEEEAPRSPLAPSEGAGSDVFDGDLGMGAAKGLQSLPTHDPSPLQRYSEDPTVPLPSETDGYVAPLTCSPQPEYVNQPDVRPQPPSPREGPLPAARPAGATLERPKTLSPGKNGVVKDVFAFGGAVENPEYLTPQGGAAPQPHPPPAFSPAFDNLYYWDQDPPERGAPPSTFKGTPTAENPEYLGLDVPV
EXPERIMENTAL_READOUT: IC50 (nM)

[P] C=CC(=O)N1CCCC[C@@H](c2ccc3ncnc(Nc4cc(C)c(Oc5ccc6c(c5)ncn6C)cc4F)c3n2)C1 (racemic) [Example 137]
[Q] C=CC(=O)N1CCC(Oc2ccc3ncnc(Nc4cc(Cl)c(Oc5ccc6cn(C)nc6c5)cc4Cl)c3n2)CC1 [Example 2]
Enquiry: Just tell me: smaller IC50 value, P or Q ? Give the label under which the chosen entry appears.
Return: P
(P: 16.8 nM, Q: 1140 nM)

[P] C=CC(=O)N1C[C@@H]2C[C@H]1CN(c1ccc3ncnc(Nc4ccc(Oc5ccc6c(c5)ncn6C)c(C)c4F)c3n1)C2 [Example 109]
[Q] C=CC(=O)N1CCC[C@@H](c2ccc3ncnc(Nc4ccc(Oc5ccn6ncnc6c5)c(C)c4F)c3n2)CC1 (single isomer, unassigned) [Example 209]
Enquiry: Lab note: check whether P or Q shows the higher recorded IC50. Give the label under which the chosen entry appears.
Return: Q
(Q: 20.1 nM, P: 13.4 nM)

[1] C=CC(=O)N1CCN(c2ccc3ncnc(Nc4ccc(Oc5ccn6ncnc6c5)c(Cl)c4)c3n2)CC1 [Example 97]
[2] C=CC(=O)N1CC[C@H]2C[C@@H](c3ccc4ncnc(Nc5cc(C)c(Oc6ccc7c(c6)ncn7C)cc5F)c4n3)C[C@H]21 (racemic) [Example 37]
Enquiry: Just tell me: smaller IC50 value, 1 or 2 ? Give the label under which the chosen entry appears.
Return: 1

----------
Biological target: EGFR wild type (EGFR WT) (Homo sapiens (Human), UniProt P00533)
Sequence (P00533 25-1210): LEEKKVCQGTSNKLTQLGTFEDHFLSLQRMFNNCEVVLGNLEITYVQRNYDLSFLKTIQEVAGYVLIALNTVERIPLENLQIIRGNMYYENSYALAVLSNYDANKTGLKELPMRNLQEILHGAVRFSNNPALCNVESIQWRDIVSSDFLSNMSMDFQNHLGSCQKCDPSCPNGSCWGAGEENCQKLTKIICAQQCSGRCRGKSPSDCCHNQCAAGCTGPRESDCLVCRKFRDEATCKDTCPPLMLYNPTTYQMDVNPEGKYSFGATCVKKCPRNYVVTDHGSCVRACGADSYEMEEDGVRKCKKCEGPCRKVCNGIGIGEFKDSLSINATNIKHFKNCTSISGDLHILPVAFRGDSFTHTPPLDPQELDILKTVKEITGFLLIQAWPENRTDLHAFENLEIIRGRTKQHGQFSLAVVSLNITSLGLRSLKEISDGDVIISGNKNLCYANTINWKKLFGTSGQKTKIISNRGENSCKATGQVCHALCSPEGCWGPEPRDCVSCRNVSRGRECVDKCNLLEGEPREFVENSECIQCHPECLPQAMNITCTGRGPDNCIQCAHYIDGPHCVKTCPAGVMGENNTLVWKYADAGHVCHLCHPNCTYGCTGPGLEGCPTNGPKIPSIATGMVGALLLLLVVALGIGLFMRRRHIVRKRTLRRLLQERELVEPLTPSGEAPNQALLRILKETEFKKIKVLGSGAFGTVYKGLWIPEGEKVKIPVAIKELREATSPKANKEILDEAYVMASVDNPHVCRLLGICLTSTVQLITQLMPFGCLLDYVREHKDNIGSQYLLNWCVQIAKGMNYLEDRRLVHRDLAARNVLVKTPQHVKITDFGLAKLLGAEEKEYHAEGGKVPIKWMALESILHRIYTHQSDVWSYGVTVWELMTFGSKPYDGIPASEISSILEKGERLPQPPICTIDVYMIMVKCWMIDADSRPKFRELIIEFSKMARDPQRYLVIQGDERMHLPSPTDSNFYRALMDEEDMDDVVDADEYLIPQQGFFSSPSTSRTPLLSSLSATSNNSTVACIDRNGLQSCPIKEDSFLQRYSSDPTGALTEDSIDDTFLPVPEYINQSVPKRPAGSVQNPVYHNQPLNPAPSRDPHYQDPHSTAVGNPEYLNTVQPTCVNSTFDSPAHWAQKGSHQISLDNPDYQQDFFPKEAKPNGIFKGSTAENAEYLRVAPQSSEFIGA
Assay: Cellular Phosphorylation Assay, Assay 5 (EGF-stimulated EGFR phosphorylation, NIH 3T3 cells)
Assay type: cell-based
Conditions: cellular EGFR WT phosphorylation, EGF-stimulated
Protocol: NIH 3T3 cells were engineered to express ErbB2 with Exon 20 YVMA insertion (HER2-YVMA (SEQ ID NO: 2); Assay 4) or EGFR wild type (EGFR WT; Assay 5) with constructs obtained from GenScript and grown in DMEM supplemented with 10% fetal bovine serum and 15 μg/ml blasticidin. […] Serially diluted compounds were added to the plates for 1 hour at 37° C./5% CO2. EGFR WT cells were stimulated with 100 ng/ml rEGF for an additional 10 minutes at 37° C./5% CO2. […]
EXPERIMENTAL_READOUT: IC50 (nM)

>  <SMI>
C=CC(=O)N1C[C@@H]2CC[C@H]1CN2c1ccc2ncnc(Nc3cc(Cl)c(Oc4ccn5ncnc5c4)cc3F)c2n1

>  <IC50 (nM)>
124

$$$$

[1] C=CC(=O)N1[C@H](C)CN(c2ccc3ncnc(Nc4ccc(Oc5ccn6ncnc6c5)c(C)c4F)c3n2)C[C@@H]1C
[2] C=CC(=O)N1CCN(c2ccc3ncnc(Nc4ccc(Oc5cc(F)c6c(c5)ncn6C)c(C)c4)c3n2)C[C@H]1CC
[3] C=CC(=O)N1CCN(c2ccc3ncnc(Nc4ccc(Oc5ccn6ncnc6c5)c(Cl)c4F)c3n2)C[C@H]1C(C)(C)C
Enquiry: Ordering: ascending IC50. API: response body holds the labels in the requested order.
Return: 3, 2, 1
(3: 562 nM, 2: 1230 nM, 1: 4550 nM)

----------
Target: EGFR wild type (EGFR WT) (Homo sapiens (Human))
Experiment: Cellular Phosphorylation Assay, Assay 5 (EGF-stimulated EGFR phosphorylation, NIH 3T3 cells)
Type: cell-based
Details: cellular EGFR WT phosphorylation, EGF-stimulated
Description: NIH 3T3 cells were engineered to express ErbB2 with Exon 20 YVMA insertion (HER2-YVMA (SEQ ID NO: 2); Assay 4) or EGFR wild type (EGFR WT; Assay 5) with constructs obtained from GenScript and grown in DMEM supplemented with 10% fetal bovine serum and 15 μg/ml blasticidin. […] Serially diluted compounds were added to the plates for 1 hour at 37° C./5% CO2. EGFR WT cells were stimulated with 100 ng/ml rEGF for an additional 10 minutes at 37° C./5% CO2. […]
EXPERIMENTAL_READOUT: IC50 (µM)

[P] C=CC(=O)N1C[C@H]2C[C@@H]1[C@H](c1ccc3ncnc(Nc4ccc(Oc5ccn6ncnc6c5)c(C)c4F)c3n1)C2
[Q] C=CC(=O)N1CCN(c2ccc3ncnc(Nc4ccc(Oc5cc(F)c6c(c5)ncn6C)c(C)c4)c3n2)C[C@@H]1C1CC1 (racemic)
Enquiry: Lab note: check whether P or Q shows the higher recorded IC50. Give the label under which the chosen entry appears.
Return: P
(P: 4.08 µM, Q: 1.82 µM)
